The following compounds are listed with their measured inhibition at 10 µM values.
Molecular target: LOX (Mus musculus, UniProt P28301)
Construct: Full length LOX cDNA was then PCR cloned into pEGFP-N1 (Clonetech), or biosensor vector proGFP2-N1; expressed in transfected cells; host or cells: MDCK cells grown as cysts on Matrigel, G418-selected
Sequence (P28301 163-411): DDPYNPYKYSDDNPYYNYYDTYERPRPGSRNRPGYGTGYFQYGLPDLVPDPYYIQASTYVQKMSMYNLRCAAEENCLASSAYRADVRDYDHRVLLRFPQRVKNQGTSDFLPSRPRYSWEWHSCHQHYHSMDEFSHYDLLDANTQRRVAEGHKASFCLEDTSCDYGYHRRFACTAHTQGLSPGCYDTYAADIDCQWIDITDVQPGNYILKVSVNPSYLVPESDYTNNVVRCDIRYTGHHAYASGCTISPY
Experiment: LOX activity in cysts assay (LOX-roGFP2 biosensor, MDCK cysts)
Assay type: cell-based
Conditions: 10 uM; MDCK cysts; inhibitor added 30 min prior to imaging; DMSO = 0%, BAPN 1 mM = 100% inhibition; read-out: LOX biosensor inhibition (cyst) @ 10 uM
Unit % implied. Number only.

{"compound": "CC1(C)C[C@@H]2CN(C(=O)CCC#N)C[C@H]1N(c1ccc(N3CCS(=O)(=O)CC3)cc1)C2 [Example 49]", "measurement": 100}

Ask | Param item = CNS(=O)(=O)N1C[C@@H]2CN(c3ccc(OC)cc3)[C@H](C1)C(C)(C)C2 [Example 56] ; retrieve measured inhibition at 10 µM.
Reply | 74

Ask | Param item = CCNC(=O)N1C[C@@H]2CN(c3ccc(OCCOC)cc3)[C@H](C1)C(C)(C)C2 [Example 3] ; retrieve measured inhibition at 10 µM.
Reply | 88

Ask | Param item = CCOc1ccc(N2C[C@H]3CN(c4ccc(NC(C)=O)cc4)C[C@@H]2C(C)(C)C3)cc1 [Example 58] ; retrieve measured inhibition at 10 µM.
Reply | 100

Ask | Param item = CC1(C)C[C@@H]2CN(C(=O)NC3CCOCC3)C[C@H]1N(c1ccc(N3CCS(=O)(=O)CC3)cc1)C2 [Example 7] ; retrieve measured inhibition at 10 µM.
Reply | 88

Ask | Param item = CCOc1ccc(N2C[C@H]3CN(C4=NCCO4)C[C@@H]2C(C)(C)C3)cc1 [Example 38] ; retrieve measured inhibition at 10 µM.
Reply | 59

Ask | Param item = CC1(C)C[C@@H]2CN(C(=O)NCCO)C[C@H]1N(c1ccc(Oc3ccccn3)cc1)C2 [Example 28] ; retrieve measured inhibition at 10 µM.
Reply | 100

Ask | Param item = CCOc1ccc(N2C[C@H]3CN(C(=O)CCC#N)C[C@@H]2C(C)(C)C3)cc1 [Example 50] ; retrieve measured inhibition at 10 µM.
Reply | 57

Data origin: patent US12060360B2
